Origin of the recorded values: patent US6417212B1

- measurement.target: huPPARγ (Homo sapiens, UniProt P37231)
- Sequence (P37231 whole entry): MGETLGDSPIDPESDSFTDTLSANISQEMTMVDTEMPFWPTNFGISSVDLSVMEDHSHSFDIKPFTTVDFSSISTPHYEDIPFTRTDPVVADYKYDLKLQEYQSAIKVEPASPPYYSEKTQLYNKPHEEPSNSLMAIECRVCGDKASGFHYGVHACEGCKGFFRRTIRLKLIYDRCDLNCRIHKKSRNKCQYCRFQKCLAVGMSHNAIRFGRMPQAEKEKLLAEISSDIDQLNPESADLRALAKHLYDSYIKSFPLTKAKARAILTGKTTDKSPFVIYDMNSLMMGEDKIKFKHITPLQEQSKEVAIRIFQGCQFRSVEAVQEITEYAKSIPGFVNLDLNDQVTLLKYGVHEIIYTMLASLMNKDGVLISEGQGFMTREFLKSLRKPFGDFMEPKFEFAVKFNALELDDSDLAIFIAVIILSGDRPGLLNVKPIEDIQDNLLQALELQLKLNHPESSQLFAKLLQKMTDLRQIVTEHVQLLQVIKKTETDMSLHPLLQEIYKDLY
- Sequence (P19793 whole entry partner): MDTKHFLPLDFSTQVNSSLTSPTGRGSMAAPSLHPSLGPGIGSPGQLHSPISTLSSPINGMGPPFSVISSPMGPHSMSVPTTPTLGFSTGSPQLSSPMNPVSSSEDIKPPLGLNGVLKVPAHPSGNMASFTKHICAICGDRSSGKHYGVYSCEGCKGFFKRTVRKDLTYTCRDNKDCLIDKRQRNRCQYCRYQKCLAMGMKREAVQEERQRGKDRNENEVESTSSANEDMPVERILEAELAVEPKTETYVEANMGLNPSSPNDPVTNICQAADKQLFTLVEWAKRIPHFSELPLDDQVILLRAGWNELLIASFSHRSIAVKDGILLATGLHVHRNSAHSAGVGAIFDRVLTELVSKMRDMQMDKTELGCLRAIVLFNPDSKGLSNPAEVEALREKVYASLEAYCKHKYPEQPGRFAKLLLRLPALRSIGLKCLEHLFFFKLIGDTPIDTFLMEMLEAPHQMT
- procedure.summary: Cotransfection assay in CV-1 cells, huPPARγ
- Type: cell-based
- Set-up: expressed in transfected cells; host or cells: CV-1 cells
- condition.info: AOX PPRE luciferase reporter, relative to agonist reference molecule, read-out: huPPARγ CTF Efficacy
value.kind: Emax (%)

Cc1oc(-c2ccc(-c3ccccc3)cc2)nc1CCOc1ccc(OC(C)(C)C(=O)O)c(Cc2ccccc2)c1    92
Cc1oc(-c2ccc(-c3ccccc3)cc2)nc1CCOc1cccc(OC(C)(C)C(=O)O)c1    70
Cc1oc(-c2ccc(-c3ccccc3)cc2)nc1CCOc1ccc(OC(C)(C)C(=O)O)c(CC2CCCCC2)c1    71
Cc1oc(-c2cccc(-c3ccccc3)c2)nc1CCOc1ccc(OC(C)(C)C(=O)O)c(Cc2ccccc2)c1    61
Cc1oc(-c2ccc(-c3ccccc3F)cc2)nc1CCOc1ccc(OC(C)(C)C(=O)O)cc1    100

(a) COc1ccccc1-c1ccc(-c2nc(CCOc3ccc(OC(C)(C)C(=O)O)cc3)c(C)o2)cc1
(b) Cc1oc(-c2ccc(-c3ccc[nH]3)cc2)nc1CCOc1ccc(OC(C)(C)C(=O)O)cc1
(c) Cc1oc(-c2ccc(-c3ccccc3)cc2)nc1CCOc1ccc(OC(C)(C)C(=O)O)cc1CC1CCCCC1
Arrange the 3 entries by Emax so the values rise. // list labels; follow requested order
c, a, b

(I) CCCCc1cc(OC(C)(C)C(=O)O)ccc1OCCc1nc(-c2cccc(-c3ccccc3)c2)oc1C
(II) Cc1oc(-c2ccc(-c3ccccc3)cc2)nc1CCSc1ccc(OC(C)(C)C(=O)O)cc1
Between the entries labelled I and II , which has a larger Emax value on record? Selection: enter the item's label.
II
(II: 126%, I: 60%)
